target: T1, human LILRB2 expressed on cells (293T-LILRB2, CHO-K1-LILRB2) (human, UniProt Q8N423 22-597); assay: flow cytometry, 293T-LILRB2 cells
T1 construct: whole, on cells; the cell line is named under assay; also called HEK293T-LILRB2
T1 sequence (Q8N423 22-597): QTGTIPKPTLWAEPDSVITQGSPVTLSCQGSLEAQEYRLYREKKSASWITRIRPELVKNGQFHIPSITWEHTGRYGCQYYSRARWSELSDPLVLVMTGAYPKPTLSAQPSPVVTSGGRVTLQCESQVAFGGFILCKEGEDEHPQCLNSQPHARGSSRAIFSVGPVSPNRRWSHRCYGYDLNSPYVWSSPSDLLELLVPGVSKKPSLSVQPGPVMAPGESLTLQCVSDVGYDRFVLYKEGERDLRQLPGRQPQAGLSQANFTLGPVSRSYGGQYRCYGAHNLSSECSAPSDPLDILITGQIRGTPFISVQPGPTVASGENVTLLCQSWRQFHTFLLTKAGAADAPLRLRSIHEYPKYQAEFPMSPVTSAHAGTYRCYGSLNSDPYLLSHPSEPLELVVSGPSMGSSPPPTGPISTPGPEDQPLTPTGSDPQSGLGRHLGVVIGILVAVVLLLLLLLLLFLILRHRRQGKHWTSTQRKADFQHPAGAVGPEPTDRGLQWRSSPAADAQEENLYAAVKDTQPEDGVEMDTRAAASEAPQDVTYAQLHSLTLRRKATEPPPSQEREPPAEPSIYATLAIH
Listed binders paired with reported Bmax
Number only, no unit.

Study these solved cases before continuing.
• Antibody 2E1_GH11 (antibody, V domains shown) VH: EVQLVESGGGLVQPGGSLRLSCAVSGYSITSGYYWWWIRQAPGKGLEWVAYISYDGNNNYNPSLKNRFTISRDTSKNTFYLQMNSLRAEDTAVYYCAREESTMITTAWFAYWGQGTLVTVSS VL: DIQMTQSPSSLSASVGDRVTITCNASENIYSNLAWYQQKPGKAPKLLIYGATNLASGVPSRFSGSGSGTDYTLTISSLQPEDFATYYCQHFWDTPYTFGQGTKVEIK = 743000
• Antibody 2E1_FG4 (antibody, V domains shown) VH: EVQLVESGGGLVQPGGSLRLSCAVSGYSITSGYYWNWIRQAPGKGLEWVAYISYDGNVNYNPSLKNRFTISRDTSKNTFYLQMNSLRAEDTAVYYCAREESTMITTAWFAYWGQGTLVTVSS VL: DIQMTQSPSSLSASVGDRVTITCRASENIYSNLAWYQQKPGKAPKLLIYGATNLASGVPSRFSGSGSGTDYTLTISSLQPEDFATYYCQHFWDTPYIFGQGTKVEIK = 434000
• Antibody 2E1_FG2 (antibody, V domains shown) VH: EVQLVESGGGLVQPGGSLRLSCAVSGYSITSGYYWNWIRQAPGKGLEWVAYISYDGNTNYNPSLKNRFTISRDTSKNTFYLQMNSLRAEDTAVYYCAREESTMITTAWFAYWGQGTLVTVSS VL: DIQMTQSPSSLSASVGDRVTITCRASENIYSNLAWYQQKPGKAPKLLIYGATNLASGVPSRFSGSGSGTDYTLTISSLQPEDFATYYCQHFWDTPYVFGQGTKVEIK = 417000

Return Bmax for the following binder: Antibody 2E1_FH9 (antibody, V domains shown) VH: EVQLVESGGGLVQPGGSLRLSCAVSGYSITSGYYWNWIRQAPGKGLEWVAYISYDGNNLYNPSLKNRFTISRDTSKNTFYLQMNSLRAEDTAVYYCAREESTMITTAWFAYWGQGTLVTVSS VL: DIQMTQSPSSLSASVGDRVTITCRASENIYSNLAWYQQKPGKAPKLLIYGATNLASGVPSRFSGSGSGTDYTLTISSLQPEDFATYYCQHFWDTPYTFGQGTKVEIK
684000

For the binder Antibody 2E1_FF3 (antibody, V domains shown) VH: EVQLVESGGGLVQPGGSLRLSCAVSGYSITSGYYWNWIRQAPGKGLEWVAYISYDGNNSYNPSLKNRFTISRDTSKNTFYLQMNSLRAEDTAVYYCAREESTMITTAWFAYWGQGTLVTVSS VL: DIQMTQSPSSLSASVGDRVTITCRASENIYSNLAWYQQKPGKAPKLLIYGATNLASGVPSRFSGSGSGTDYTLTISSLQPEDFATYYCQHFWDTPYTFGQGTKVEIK , give its reported Bmax.
434000

Recall and state the measured Bmax for Antibody 2E1_FD3 (antibody, V domains shown) VH: EVQLVESGGGLVQPGGSLRLSCAVSGYSITSGYYWNWIRQAPGKGLEWVAYISYDGNANYNPSLKNRFTISRDTSKNTFYLQMNSLRAEDTAVYYCAREESTMITTAWFAYWGQGTLVTVSS VL: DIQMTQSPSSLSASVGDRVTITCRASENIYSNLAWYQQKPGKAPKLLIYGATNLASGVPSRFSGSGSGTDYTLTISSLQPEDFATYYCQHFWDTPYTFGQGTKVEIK .
460000

Read the entry Antibody 2E1_GA4 (antibody, V domains shown) VH: EVQLVESGGGLVQPGGSLRLSCAVSGYSITSGYAWNWIRQAPGKGLEWVAYISYDGNNNYNPSLKNRFTISRDTSKNTFYLQMNSLRAEDTAVYYCAREESTMITTAWFAYWGQGTLVTVSS VL: DIQMTQSPSSLSASVGDRVTITCVASENIYSNLAWYQQKPGKAPKLLIYGATNLASGVPSRFSGSGSGTDYTLTISSLQPEDFATYYCQHFWDTPYTFGQGTKVEIK and write its reported Bmax.
725000

Answer with the recorded Bmax of Antibody 2E1_GH6 (antibody, V domains shown) VH: EVQLVESGGGLVQPGGSLRLSCAVSGYSITSGYHWNWIRQAPGKGLEWVAYISYDGNNNYNPSLKNRFTISRDTSKNTFYLQMNSLRAEDTAVYYCAREESTMITTAWFAYWGQGTLVTVSS VL: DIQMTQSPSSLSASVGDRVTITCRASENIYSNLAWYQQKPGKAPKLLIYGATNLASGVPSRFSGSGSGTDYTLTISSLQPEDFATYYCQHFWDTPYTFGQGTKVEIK only.
678000

Supply measured Bmax of Antibody 2E1_GB1 (antibody, V domains shown) VH: EVQLVESGGGLVQPGGSLRLSCAVSGYSITSGYSWNWIRQAPGKGLEWVAYISYDGNNNYNPSLKNRFTISRDTSKNTFYLQMNSLRAEDTAVYYCAREESTMITTAWFAYWGQGTLVTVSS VL: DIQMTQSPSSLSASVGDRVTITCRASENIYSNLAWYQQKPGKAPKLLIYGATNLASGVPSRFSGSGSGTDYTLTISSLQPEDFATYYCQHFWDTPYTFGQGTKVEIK in your reply.
637000

Fill in reported Bmax for this entry: Antibody 2E1_GE11 (antibody, V domains shown) VH: EVQLVESGGGLVQPGGSLRLSCAVSGYSITSGYSWNWIRQAPGKGLEWVAYISYDGNNNYNPSLKNRFTISRDTSKNTFYLQMNSLRAEDTAVYYCAREESTMITTAWFAYWGQGTLVTVSS VL: DIQMTQSPSSLSASVGDRVTITCGASENIYSNLAWYQQKPGKAPKLLIYGATELASGVPSRFSGSGSGTDYTLTISSLQPEDFATYYCQHFWDTPYTFGQGTKVEIK
658000
